method.description: qHTS assay to test for compound auto fluorescence at 535 nm (green) in HEK293 cell free culture (AID 720682)
condition.context: cell-free medium, green autofluorescence 485/535 nm; series mostly up to 91.3 µM
Active and inactive are the calls of the source. Calls come from the whole dose curve; as a rule, active = well fitted curve in the direction sought with a large enough effect in the repeat runs; inconclusive = weak or mixed curves; inactive = flat fitted curve, though single readings scatter.
assay.metric: activity change

# compound, assay.metric, test.result
data = [
    ("C[C@H]1O[C@H](OC2[C@@H](O)[C@@H](O)C(O)[C@H](O)[C@H]2O)[C@@H](N)C[C@@H]1N=C(N)C(=O)O (stereo partly drawn)", "activity change", "inactive"),
    ("C[C@H](N)[C@H](O)c1ccc(O)c(O)c1", "activity change", "inactive"),
    ("C[C@]12C=CC3=C4CCC(=O)C=C4CC[C@H]3[C@@H]1CC[C@@H]2O", "activity change", "inactive"),
]

* * *

method.description: A CellTox Green Cytotoxicity Assay to monitor cytotoxicity in HEK293 cells - 0 hour (AID 1224869); note: nearly all actives have a fitted effect of over 50% in size
condition.context: CellTox Green fluorescence; series mostly up to 76.8 µM
Activity calls are given as the source filed them. Calls come from the whole dose curve; as a rule, active = well fitted activation curve with a large enough effect in the repeat runs; inconclusive = weak or mixed curves; inactive = flat fitted curve, though single readings scatter.
One label from this list, please: active, inactive

Example results:
# compound, group
data = [
    ("CCCSP(=S)(OCC)Oc1ccc(SC)cc1 (configuration not stated)", "inactive"),
    ("C[N+]1(CCF)[C@@H]2CC[C@H]1CC(OC(=O)C(O)(c1ccccc1)c1ccccc1)C2 (some centres not stated)", "inactive"),
    ("C[N+](C)(C)CC1CO1 (configuration not stated)", "inactive"),
]

Please let me know the test result on file for CC(Oc1cc(Cl)c(Cl)cc1Cl)C(=O)O (configuration not stated) . inactive

* * *

method.description: qHTS assay to identify small molecule antagonists of the thyroid receptor (TR) signaling pathway - cell viability counter screen (AID 743064); note: nearly all actives have a fitted effect of over 50% in size
condition.context: GH3.TRE-Luc viability, CellTiter-Fluor, 24 h; series mostly up to 70.3 µM
Inconclusive results are not listed. Activity calls are given as the source filed them. The call rests on the fitted dose curve; in most records, active means well fitted cell-killing curve with a large enough effect in the repeat runs; inconclusive means weak or mixed curves, or effect the other way; inactive means no such curve, though single readings can be large or run the other way.
One label from this list, please: True = active, False = inactive

# molecule, group
measured = [
    ("CCCC[P+](CC)(CCCC)CCCC (tested in a mixture with another compound)", "False"),
    ("CC(O)CN1CCN(CC(=O)[O-])CCN(CC(=O)[O-])CCN(CC(=O)[O-])CC1.[Gd+3] (stereo not given)", "False"),
    ("CCCC[N+](CCCC)(CCCC)CCCC", "False"),
]

Please let me know the test result on file for CC(C)[C@@H](C(=O)O[C@@H](C#N)c1cccc(Oc2ccccc2)c1)c1ccc(Cl)cc1 . False

Please let me know the test result on file for CCC1(CC)C(=O)NC(=O)NC1=O . False

Please let me know the test result on file for CC(C)(c1ccccc1)c1cc(-n2nc3ccccc3n2)c(O)c(C(C)(C)c2ccccc2)c1 . False

* * *

method.description: qHTS assay for small molecule activators of the heat shock response signaling pathway - cell viability counter screen (AID 743209); note: nearly all actives have a fitted effect of over 50% in size
condition.context: HSE-bla HeLa viability, CellTiter-Glo luminescence, 5 h; series mostly up to 62.6 µM
Results filed as inconclusive are left out. Active and inactive are the calls of the source. The call rests on the fitted dose curve; in most records, active means well fitted cell-killing curve with a large enough effect in the repeat runs; inconclusive means weak or mixed curves, or effect the other way; inactive means no such curve, though single readings can be large or run the other way.
One label from this list, please: active, inactive

Example results:
# compound, group
data = [
    ("CCSCc1ccccc1OC(=O)NC", "inactive"),
    ("CC(C)(c1ccccc1)c1cc(-n2nc3ccccc3n2)c(O)c(C(C)(C)c2ccccc2)c1", "inactive"),
    ("COc1ccc(C(O)(c2cncnc2)C2CC2)cc1 (configuration not stated)", "inactive"),
    ("Clc1ccc(Cl)c(Cl)c1", "inactive"),
    ("CCCCCCCCCCCCN(C)C", "inactive"),
    ("CN1C(=O)CN=C(c2ccccc2)c2cc([N+](=O)[O-])ccc21", "inactive"),
    ("COCc1cnc(C2=NC(C)(C(C)C)C(=O)N2)c(C(=O)O)c1 (configuration not stated)", "inactive"),
    ("C=C(Cl)Cl", "inactive"),
    ("Cc1nnc(-c2ccccc2)c(=O)n1N", "inactive"),
    ("CCCCC1C(=O)NC(=O)N(C2CCCCC2)C1=O (configuration not stated)", "inactive"),
]

Okay, now this compound:
Please let me know the test result on file for O=C(Cc1ccccc1)OCCc1ccccc1 . inactive

Values were extracted from PubChem BioAssay (Tox21).
